STUDY SYSTEM: T1, TGFβ2 (R&D Systems)
T1 sequence (P61812 303-414, species assumed, looked up): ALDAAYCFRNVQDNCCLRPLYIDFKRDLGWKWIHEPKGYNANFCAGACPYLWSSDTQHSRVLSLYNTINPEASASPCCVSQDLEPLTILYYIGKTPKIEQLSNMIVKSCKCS
ASSAY OVERVIEW: cell-based or functional assay
MEASUREMENT NAME: pSmad-3, IC50 (nM)
Write the value in nM as a bare number.

So what's the measured pSmad-3, IC50 for this one? affinity matured HcLb 91 (antibody, V domains shown) VH: EVQLVQSGAEVKKPGASVKVSCKTSGYTFITYWMNWVRQAPGAGLDWMGQIFPAWGSTNYNEMFEGRVTLTADTSTSTAYMELSSLRAGDIAVYYCARGDGNYALDAMDYWGQGTLVTVSS VL: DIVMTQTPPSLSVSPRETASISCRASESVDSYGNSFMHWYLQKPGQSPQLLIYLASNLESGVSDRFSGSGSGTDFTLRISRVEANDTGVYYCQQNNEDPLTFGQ
4.43

So what's the measured pSmad-3, IC50 for this one? affinity matured HcLb 260 (antibody, V domains shown, full IgG; constant regions not restated) VH: SEVQLVQSGAEVKKPGASVKVSCKTSGYTFITYWMNWVRQAPGAGLDWMGQIFPAWGVTNYNEMFEGRVTLTADTSTSTAYMELSSLRAGDIAVYYCARGYGNYALDAMDYWGQGTLVTVSS VL: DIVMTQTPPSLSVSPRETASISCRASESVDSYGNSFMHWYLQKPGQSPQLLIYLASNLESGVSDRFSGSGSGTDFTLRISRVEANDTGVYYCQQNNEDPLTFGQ
1.64

So what's the measured pSmad-3, IC50 for this one? affinity matured HcLb 258 (antibody, V domains shown, full IgG; constant regions not restated) VH: EVQLVQSGAEVKKPGASVKVSCKTSGYTFMKYWMNWVRQAPGAGLDWMGQIFPAWGSTNYNEMFEGRVTLTADTSTSTAYMELSSLRAGDIAVYYCARGYGNYALDAMDYWGQGTLVTVSS VL: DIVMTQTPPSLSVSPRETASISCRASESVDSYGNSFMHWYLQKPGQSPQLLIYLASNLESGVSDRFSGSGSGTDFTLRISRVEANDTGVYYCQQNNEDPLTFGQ
0.79

So what's the measured pSmad-3, IC50 for this one? affinity matured HcLb 261 (antibody, V domains shown, full IgG; constant regions not restated) VH: EVQLVQSGAEVKKPGASVKVSCKTSGYTFMTYWMNWVRQAPGAGLDWMGQIFPAWGSTNYNEMFEGRVTLTADTSTSTAYMELSSLRAGDIAVYYCARGYGNYALDAMDYWGQGTLVTVSS VL: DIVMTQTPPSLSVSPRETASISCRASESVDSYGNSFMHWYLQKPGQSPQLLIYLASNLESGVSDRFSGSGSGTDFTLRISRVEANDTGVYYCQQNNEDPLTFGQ
1.15

So what's the measured pSmad-3, IC50 for this one? affinity matured HcLb 233 (antibody, V domains shown, full IgG; also called canHcLb/55SW/100DY/57/SM + canHcLb/237ND/242TS) VH: EVQLVQSGAEVKKPGASVKVSCKTSGYTFITYWMNWVRQAPGAGLDWMGQIFPAWGMTNYNEMFEGRVTLTADTSTSTAYMELSSLRAGDIAVYYCARGYGNYALDAMDYWGQGTLVTVSS VL: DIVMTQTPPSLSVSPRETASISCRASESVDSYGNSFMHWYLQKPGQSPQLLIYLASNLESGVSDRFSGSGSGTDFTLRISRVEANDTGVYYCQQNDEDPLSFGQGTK
1.68

So what's the measured pSmad-3, IC50 for this one? affinity matured HcLb 190 (antibody, V domains shown) VH: EVQLVQSGAEVKKPGASVKVSCKTSGYTFITYWMNWVRQAPGAGLDWMGQIFPGSGSTNYNEMFEGRVTLTADTSTSTAYMELSSLRAGDIAVYYCARGYGNYALDAMDYWGQGTLVTVSS VL: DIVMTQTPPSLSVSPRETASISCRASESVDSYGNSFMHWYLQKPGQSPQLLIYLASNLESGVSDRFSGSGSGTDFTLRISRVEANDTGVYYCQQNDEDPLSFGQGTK
2.77

So what's the measured pSmad-3, IC50 for this one? affinity matured HcLb 217 (antibody, V domains shown, full IgG; also called canHcLb/S55W/D100Y/I30/M + canHcLb/237ND/242TS) VH: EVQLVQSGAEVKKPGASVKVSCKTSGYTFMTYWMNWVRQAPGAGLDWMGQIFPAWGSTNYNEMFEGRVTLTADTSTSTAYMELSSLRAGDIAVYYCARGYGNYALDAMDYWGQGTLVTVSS VL: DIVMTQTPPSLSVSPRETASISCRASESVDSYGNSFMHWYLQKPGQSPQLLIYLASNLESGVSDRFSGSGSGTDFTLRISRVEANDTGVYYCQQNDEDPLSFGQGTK
1.71

So what's the measured pSmad-3, IC50 for this one? affinity matured HcLb 27 (antibody, V domains shown) VH: EVQLVQSGAEVKKPGASVKVSCKTSGYTFITYWMNWVRQAPGAGLDWMGQIFPASGSTNYNEMFEGRVTLTADTSTSTAYMELSSLRAGDIAVYYCARGYGNYALDAMDYWGQGTLVTVSS VL: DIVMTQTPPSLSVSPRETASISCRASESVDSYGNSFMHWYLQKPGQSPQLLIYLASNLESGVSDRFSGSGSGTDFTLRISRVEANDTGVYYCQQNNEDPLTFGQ
8.24

So what's the measured pSmad-3, IC50 for this one? affinity matured HcLb 237 (antibody, V domains shown, full IgG; also called canHcLb/55SW/100DY/57/SV + canHcLb/237ND/242TS) VH: EVQLVQSGAEVKKPGASVKVSCKTSGYTFITYWMNWVRQAPGAGLDWMGQIFPAWGVTNYNEMFEGRVTLTADTSTSTAYMELSSLRAGDIAVYYCARGYGNYALDAMDYWGQGTLVTVSS VL: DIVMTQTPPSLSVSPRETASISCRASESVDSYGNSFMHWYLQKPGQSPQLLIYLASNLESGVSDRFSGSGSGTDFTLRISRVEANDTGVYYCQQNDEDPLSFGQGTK
1.6

So what's the measured pSmad-3, IC50 for this one? affinity matured HcLb 187 (antibody, V domains shown) VH: EVQLVQSGAEVKKPGASVKVSCKTSGYTFITYWMNWVRQAPGAGLDWMGQIFPGSGSTNYNEMFEGRVTLTADTSTSTAYMELSSLRAGDIAVYYCARGYGNYALDAMDYWGQGTLVTVSS VL: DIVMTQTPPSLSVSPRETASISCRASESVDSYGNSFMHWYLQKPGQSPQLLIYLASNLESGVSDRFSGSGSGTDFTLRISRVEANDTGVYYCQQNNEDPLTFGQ
2.08
